# experimentalTarget: Aurora-A (Mus musculus, UniProt P97477)
# Construct: made in house; host or cells: sf9 insect cells
# Sequence (P97477 1-395): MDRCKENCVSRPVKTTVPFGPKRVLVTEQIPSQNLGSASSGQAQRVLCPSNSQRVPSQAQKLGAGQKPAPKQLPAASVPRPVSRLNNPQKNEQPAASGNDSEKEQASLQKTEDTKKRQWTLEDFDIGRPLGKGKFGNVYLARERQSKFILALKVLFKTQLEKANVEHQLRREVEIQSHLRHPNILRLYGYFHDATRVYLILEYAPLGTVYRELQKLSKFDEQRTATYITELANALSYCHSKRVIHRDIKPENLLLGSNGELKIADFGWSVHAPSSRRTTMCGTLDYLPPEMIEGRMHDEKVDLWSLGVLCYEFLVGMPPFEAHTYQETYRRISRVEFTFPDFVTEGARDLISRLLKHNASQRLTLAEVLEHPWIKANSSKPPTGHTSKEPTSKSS
# measurementProtocol: Aurora-A Screening Assay
# Format: biochemical, murine
# details: 33P-γ-ATP incorporation, 10 μM ATP
observable: IC50
The number alone won't do; follow it with the unit.

Before answering, review these 5 worked examples.
>  <molecule>
c1cnc2[nH]cc(-c3ccnc(NC4CCOCC4)n3)c2c1

>  <IC50>
1.51 µM

$$$$
>  <molecule>
O[C@H]1CC[C@H](Nc2nccc(-c3c[nH]c4ncccc34)n2)CC1

>  <IC50>
0.335 µM

$$$$
>  <molecule>
c1cnc2[nH]cc(-c3ccnc(Nc4ccc(CCN5CCNCC5)cc4)n3)c2c1

>  <IC50>
0.253 µM

$$$$
>  <molecule>
CNCC[C@H]1CC[C@H](Nc2nccc(-c3c[nH]c4ncccc34)n2)CC1

>  <IC50>
1.01 µM

$$$$
>  <molecule>
COc1ccccc1Nc1nccc(-c2c[nH]c3ncccc23)n1

>  <IC50>
0.497 µM

$$$$

Ask: Quick one: IC50 of `CC(=O)N1CCC(Nc2nccc(-c3c[nH]c4ncccc34)n2)CC1` ?
Reply: 1.68 µM

Ask: Quick one: IC50 of `c1cnc2[nH]cc(-c3ccnc(NC4CCCC4)n3)c2c1` ?
Reply: 0.885 µM

Ask: Quick one: IC50 of `Cc1cc(CCN2CCCC2)ccc1Nc1nccc(-c2c[nH]c3ncccc23)n1` ?
Reply: 0.86 µM

Ask: Quick one: IC50 of `Cc1ccc(Nc2nccc(-c3c[nH]c4ncccc34)n2)c(C)c1` ?
Reply: 0.408 µM

Ask: Quick one: IC50 of `Cc1cccc(Nc2nccc(-c3c[nH]c4ncccc34)n2)c1C` ?
Reply: 0.238 µM

Ask: Quick one: IC50 of `NC1CCN(c2nccc(-c3c[nH]c4ncccc34)n2)CC1` ?
Reply: 0.762 µM

Ask: Quick one: IC50 of `CN(C)CCc1ccc(Nc2nccc(-c3c[nH]c4ncccc34)n2)cc1` ?
Reply: 0.257 µM

----------
# experimentalTarget: CDK1:Cyclin-B (Homo sapiens, UniProt P06493)
# Construct: purchased New England Biolabs, Beverly, Mass; 6020; host or cells: insect cells
# Sequence (P06493 whole entry): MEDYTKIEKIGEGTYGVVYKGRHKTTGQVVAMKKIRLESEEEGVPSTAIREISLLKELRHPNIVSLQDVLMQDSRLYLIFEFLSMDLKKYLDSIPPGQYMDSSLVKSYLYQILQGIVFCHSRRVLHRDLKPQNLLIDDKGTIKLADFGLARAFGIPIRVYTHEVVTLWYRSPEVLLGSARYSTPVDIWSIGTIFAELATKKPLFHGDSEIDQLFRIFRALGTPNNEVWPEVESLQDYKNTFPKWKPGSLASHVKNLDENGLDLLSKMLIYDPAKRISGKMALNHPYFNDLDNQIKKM
# Sequence (P14635 whole entry partner): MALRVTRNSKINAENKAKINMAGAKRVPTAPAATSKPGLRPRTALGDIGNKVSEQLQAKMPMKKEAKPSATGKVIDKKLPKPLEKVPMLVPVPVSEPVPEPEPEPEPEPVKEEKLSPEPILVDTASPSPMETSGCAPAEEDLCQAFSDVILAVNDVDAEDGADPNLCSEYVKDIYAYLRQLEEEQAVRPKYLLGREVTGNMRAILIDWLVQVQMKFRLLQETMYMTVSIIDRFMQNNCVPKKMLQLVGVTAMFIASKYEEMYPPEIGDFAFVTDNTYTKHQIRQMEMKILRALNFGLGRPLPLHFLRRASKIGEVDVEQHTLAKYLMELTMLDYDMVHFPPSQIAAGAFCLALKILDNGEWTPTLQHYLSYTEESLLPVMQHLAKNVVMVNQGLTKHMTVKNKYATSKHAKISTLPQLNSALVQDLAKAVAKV
# measurementProtocol: CDK1 Screening Assay
# Type: biochemical
# details: 33P-γ-ATP incorporation, 10 μM ATP
Quick rule for you: IC50 under 0.04 µM gets YES, anything else gets NO.

Ask: Determine whether this compound shows IC50 lower than 0.04 µM (ties excluded): NC1CCN(c2nccc(-c3c[nH]c4ncccc34)n2)CC1 [Cpd 62]
Reply: NO

Ask: Determine whether this compound shows IC50 lower than 0.04 µM (ties excluded): Cc1ccc(Nc2nccc(-c3c[nH]c4ncccc34)n2)c(C)c1 [Cpd 33]
Reply: YES

Ask: Determine whether this compound shows IC50 lower than 0.04 µM (ties excluded): CN(C)c1ccc(Nc2nccc(-c3c[nH]c4ncccc34)n2)cc1 [Cpd 38]
Reply: YES

----------
# experimentalTarget: CDK1:Cyclin-B (Homo sapiens)
# Construct: purchased New England Biolabs, Beverly, Mass; 6020; host or cells: insect cells
# measurementProtocol: CDK1 Screening Assay
# Type: biochemical
# details: 33P-γ-ATP incorporation, 10 μM ATP
observable: log10 of IC50 (log10 of the value in µM)
All values: log10 IC50 [µM].

Before answering, review these 8 worked examples.
>  <compound>
OCCc1ccc(Nc2nccc(-c3c[nH]c4ncccc34)n2)c(Cl)c1

>  <log10 of IC50>
-2.06

$$$$
>  <compound>
Clc1cc(CCN2CCOCC2)ccc1Nc1nccc(-c2c[nH]c3ncccc23)n1

>  <log10 of IC50>
-0.98

$$$$
>  <compound>
CCNCCc1ccc(Nc2nccc(-c3c[nH]c4ncccc34)n2)cc1

>  <log10 of IC50>
-1.85

$$$$
>  <compound>
CC1CCC(Nc2nccc(-c3c[nH]c4ncccc34)n2)CC1 (mixture of isomers)

>  <log10 of IC50>
-1.92

$$$$
>  <compound>
CN1CCC(Nc2nccc(-c3c[nH]c4ncccc34)n2)CC1

>  <log10 of IC50>
-0.89

$$$$
>  <compound>
CNCCc1ccc(Nc2nccc(-c3c[nH]c4ncccc34)n2)cc1

>  <log10 of IC50>
-1.29

$$$$
>  <compound>
Cc1cccc(Nc2nccc(-c3c[nH]c4ncccc34)n2)c1

>  <log10 of IC50>
-1.24

$$$$
>  <compound>
CCc1ccccc1Nc1nccc(-c2c[nH]c3ncccc23)n1

>  <log10 of IC50>
-1.17

$$$$

Now take the following compound into account.
Ask: Quick one: log10 of IC50 of `Cc1cc(O)ccc1Nc1nccc(-c2c[nH]c3ncccc23)n1` ?
Reply: -3.12

----------
# experimentalTarget: Aurora-A (Mus musculus)
# Construct: made in house; host or cells: sf9 insect cells
# measurementProtocol: Aurora-A Screening Assay
# Assay type: biochemical, murine
# details: 33P-γ-ATP incorporation, 10 μM ATP
The following compounds are listed with their measured IC50 values.
Your answer is read as µM, so omit the unit and give the number.

Before answering, review these 4 worked examples.
>  <compound>
CC1CCC(Nc2nccc(-c3c[nH]c4ncccc34)n2)CC1 (mixture of isomers) [Cpd 17]

>  <experimentalTarget>
Aurora-A (Mus musculus)

>  <reportedValue>
0.312

$$$$
>  <compound>
Fc1ccccc1Nc1nccc(-c2c[nH]c3ncccc23)n1 [Cpd 31]

>  <experimentalTarget>
Aurora-A (Mus musculus)

>  <reportedValue>
0.1

$$$$
>  <compound>
CCN(CC)CCc1ccc(Nc2nccc(-c3c[nH]c4ncccc34)n2)c(C)c1 [Cpd 47]

>  <experimentalTarget>
Aurora-A (Mus musculus)

>  <reportedValue>
0.972

$$$$
>  <compound>
OCCc1ccc(Nc2nccc(-c3c[nH]c4ncccc34)n2)c(Cl)c1 [Cpd 52]

>  <experimentalTarget>
Aurora-A (Mus musculus)

>  <reportedValue>
0.0757

$$$$

Now take the following compound into account.
Ask: Quick one: IC50 of c1cnc2[nH]cc(-c3ccnc(NC4CCNCC4)n3)c2c1 [Cpd 65] ?
Reply: 1.3

----------
# experimentalTarget: RET (Homo sapiens)
# Construct: the RET cytoplasmic domain consisting of the last 492 amino acids of the intracellular domain of the RET tyrosine kinase; histidine tag (N); made in house; host or cells: Hi5 insect cells
# Sequence (P07949 658-1114 limits assumed): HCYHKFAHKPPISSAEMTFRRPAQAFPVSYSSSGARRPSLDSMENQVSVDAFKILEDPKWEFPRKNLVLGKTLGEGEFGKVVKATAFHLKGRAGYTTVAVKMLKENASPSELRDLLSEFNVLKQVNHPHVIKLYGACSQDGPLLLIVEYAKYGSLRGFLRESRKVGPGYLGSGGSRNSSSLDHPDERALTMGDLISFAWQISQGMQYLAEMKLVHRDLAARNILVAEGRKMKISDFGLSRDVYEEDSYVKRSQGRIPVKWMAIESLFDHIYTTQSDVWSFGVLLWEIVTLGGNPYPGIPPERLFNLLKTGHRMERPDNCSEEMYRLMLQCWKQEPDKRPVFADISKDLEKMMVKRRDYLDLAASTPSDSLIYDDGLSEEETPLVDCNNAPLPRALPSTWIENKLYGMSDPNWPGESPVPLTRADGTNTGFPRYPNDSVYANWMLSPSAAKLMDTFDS
# measurementProtocol: RET Kinase Screening Assay
# Type: biochemical
# details: 33P-γ-ATP incorporation, 10 μM ATP
The following compounds are listed with their measured IC50 values.
Your answer is read as µM, so omit the unit and give the number.

>  <molecule>
CCOc1ccc(Nc2nccc(-c3c[nH]c4ncccc34)n2)cc1

>  <IC50 / µM>
1

$$$$
>  <molecule>
c1cnc2[nH]cc(-c3ccnc(Nc4ccc(CCN5CCOCC5)cc4)n3)c2c1

>  <IC50 / µM>
0.587

$$$$
>  <molecule>
c1ccc(Nc2nccc(-c3c[nH]c4ncccc34)n2)cc1

>  <IC50 / µM>
1

$$$$
>  <molecule>
Cc1cc(CCN2CCOCC2)ccc1Nc1nccc(-c2c[nH]c3ncccc23)n1

>  <IC50 / µM>
2.28

$$$$
>  <molecule>
Cc1cccc(C)c1Nc1nccc(-c2c[nH]c3ncccc23)n1

>  <IC50 / µM>
1

$$$$
>  <molecule>
OCCc1ccc(Nc2nccc(-c3c[nH]c4ncccc34)n2)c(Cl)c1

>  <IC50 / µM>
0.54

$$$$
>  <molecule>
Nc1ccc(Nc2nccc(-c3c[nH]c4ncccc34)n2)cc1

>  <IC50 / µM>
1.62

$$$$
>  <molecule>
CCN(CC)CCc1ccc(Nc2nccc(-c3c[nH]c4ncccc34)n2)c(C)c1

>  <IC50 / µM>
1.4

$$$$

Ask: Quick one: IC50 of `OCCOc1ccc(Nc2nccc(-c3c[nH]c4ncccc34)n2)cc1` ?
Reply: 1.41

Ask: Quick one: IC50 of `c1cnc2[nH]cc(-c3ccnc(Nc4ccc(CCN5CCNCC5)cc4)n3)c2c1` ?
Reply: 0.892

Ask: Quick one: IC50 of `CN(C)CCc1ccc(Nc2nccc(-c3c[nH]c4ncccc34)n2)c(Cl)c1` ?
Reply: 4.06

Values were extracted from patent US7855205B2.
